# Test system: SW1088 (Low Grade Glioma)
# experimentNotes: combination Emax (second highest fraction inhibited in the dose matrix, 72 h); higher = more inhibition; extreme values may be limits of the assay
Property: combination Emax; scope: individual compounds

# compound, combination Emax
rows = [
    ("CN(CCO)CC[C@H](CSc1ccccc1)Nc1ccc(S(=O)(=O)NC(=O)c2ccc(N3CCC([C@@H](O)c4ccccc4-c4ccc(Cl)cc4)CC3)cc2)cc1S(=O)(=O)C(F)(F)F [AZD4320] + CC(=O)O[C@H]1C(=O)[C@@]2(C)[C@H]([C@H](OC(=O)c3ccccc3)[C@]3(O)C[C@H](OC(=O)[C@H](O)[C@@H](NC(=O)c4ccccc4)c4ccccc4)C(C)=C1C3(C)C)[C@]1(OC(C)=O)CO[C@@H]1C[C@@H]2O [Paclitaxel] (first compound max 1 µM, 7x7, partner max 3 µM)", 0.837),
    ("COc1cccc(OCCCN)c1-c1cc(Nc2cnc(C#N)cn2)n[nH]1 [Prexasertib] + C[C@@H]1COCCN1C2=NC(=NC(=C2)C3(CC3)[S@](=N)(=O)C)C4=C5C=CNC5=NC=C4 [AZD6738] (first compound max 1 µM, 7x7, partner max 10 µM)", 0.762),
    ("N#Cc1cnc(Nc2cc(NC[C@H]3CNCCO3)c(C(F)(F)F)cn2)cn1 [SRA737] + CCc1c2c(nc3ccc(O)cc13)-c1cc3c(c(=O)n1C2)COC(=O)[C@]3(O)CC [SN-38] (first compound max 10 µM, 7x7, partner max 0.3 µM)", 0.736),
    ("CC1(C)CCC(CN2CCN(c3ccc(C(=O)NS(=O)(=O)c4ccc(NCC5CCOCC5)c([N+](=O)[O-])c4)c(Oc4cnc5[nH]ccc5c4)c3)CC2)=C(c2ccc(Cl)cc2)C1 [Venetoclax] + C1CN(CCC1(C(=O)N[C@@H](CCO)C2=CC=C(C=C2)Cl)N)C3=NC=NC4=C3C=CN4 [Capivasertib] (first compound max 1 µM, 7x7, partner max 3 µM)", 0.494),
    ("NC1(C(=O)N[C@@H](CCO)c2ccc(Cl)cc2)CCN(c2ncnc3[nH]ccc23)CC1 [Capivasertib] + Cn1cnc2c(F)c(Nc3ccc(Br)cc3Cl)c(C(=O)NOCCO)cc21 [Selumetinib] (first compound max 10 µM, 7x7, partner max 10 µM)", 0.618),
    ("C=CCn1c(=O)c2cnc(Nc3ccc(N4CCN(C)CC4)cc3)nc2n1-c1cccc(C(C)(C)O)n1 [AZD1775] + CCc1c2c(nc3ccc(O)cc13)-c1cc3c(c(=O)n1C2)COC(=O)[C@]3(O)CC [SN-38] (first compound max 1 µM, partner max 0.3 µM)", 0.712),
]

* * *

# Tested on: NCI-H1694 (Small Cell Lung Carcinoma)
# experimentNotes: combination Emax (second highest fraction inhibited in the dose matrix, 72 h); higher = more inhibition; extreme values may be limits of the assay
So basically: combination Emax at 0.4 or higher? That is yes (1). Lower than 0.4? That is no (0).

# compound, label
measured = [
    ("CN(C)CCCOc1ccc(-c2ccc3ncc4c(c3c2)n(C2CCOCC2)c(=O)n4C)cn1 [AZD0156] + C=CCn1c(=O)c2cnc(Nc3ccc(N4CCN(C)CC4)cc3)nc2n1-c1cccc(C(C)(C)O)n1 [AZD1775] (first compound max 1 µM, partner max 1 µM)", "no (0)"),
    ("Cc1c2c(nn1C)CSCc1cc(n(C)n1)CSc1cc(c3ccccc3c1)OCCCc1c(C(=O)O)n(C)c3c-2c(Cl)ccc13 [AZD5991] + C1CN(CCC1(C(=O)N[C@@H](CCO)C2=CC=C(C=C2)Cl)N)C3=NC=NC4=C3C=CN4 [Capivasertib] (first compound max 1 µM, 7x7, partner max 3 µM)", "yes (1)"),
    ("Cn1cnc2c(F)c(Nc3ccc(Br)cc3Cl)c(C(=O)NOCCO)cc21 [Selumetinib] + C[C@@H]1COCCN1C2=NC(=NC(=C2)C3(CC3)[S@](=N)(=O)C)C4=C5C=CNC5=NC=C4 [AZD6738] (first compound max 10 µM, 7x7, partner max 10 µM)", "yes (1)"),
    ("COc1cccc(OCCCN)c1-c1cc(Nc2cnc(C#N)cn2)n[nH]1 [Prexasertib] + O=C(c1cc(Cc2n[nH]c(=O)c3ccccc23)ccc1F)N1CCN(C(=O)C2CC2)CC1 [Olaparib] (first compound max 1 µM, 7x7, partner max 10 µM)", "yes (1)"),
    ("CC1(C)CCC(CN2CCN(c3ccc(C(=O)NS(=O)(=O)c4ccc(NCC5CCOCC5)c([N+](=O)[O-])c4)c(Oc4cnc5[nH]ccc5c4)c3)CC2)=C(c2ccc(Cl)cc2)C1 [Venetoclax] + C[C@@H](Nc1cc(F)cc(F)c1)c1cc(C(=O)N(C)C)cc2c(=O)cc(N3CCOCC3)oc12 [AZD8186] (first compound max 1 µM, 7x7, partner max 3 µM)", "no (0)"),
    ("Cc1c2c(nn1C)CSCc1cc(n(C)n1)CSc1cc(c3ccccc3c1)OCCCc1c(C(=O)O)n(C)c3c-2c(Cl)ccc13 [AZD5991] + CN(C)CCCOc1ccc(-c2ccc3ncc4c(c3c2)n(C2CCOCC2)c(=O)n4C)cn1 [AZD0156] (first compound max 1 µM, 7x7, partner max 1 µM)", "yes (1)"),
    ("CCN(CCO)CCCOc1ccc2c(Nc3cc(CC(=O)Nc4cccc(F)c4)[nH]n3)ncnc2c1 [AZD2811] + O=C(c1cc(Cc2n[nH]c(=O)c3ccccc23)ccc1F)N1CCN(C(=O)C2CC2)CC1 [Olaparib] (first compound max 1 µM, 7x7, partner max 10 µM)", "no (0)"),
]
